Test: Color (λmax) by UV/visible spectrophotometer
Type: physicochemical
Observed property: Color (λmax; nm)

>  <Given smiles>
Cn1cc[n+](C)c1/N=N/c1cc2c3c(c1)OCCN3CCO2

>  <Experimental value>
553

$$$$
>  <Given smiles>
CCN1CCN(CC)c2cc(/N=N/c3n(CCCN)cc[n+]3CCCN)ccc21.Cl.Cl.[Br-]

>  <Experimental value>
587

$$$$
>  <Given smiles>
CCCCCN1CCNc2cc(/N=N/c3n(CCCN)cc[n+]3CCCN)ccc21.Cl.Cl.[Br-]

>  <Experimental value>
582

$$$$
>  <Given smiles>
CN1CCNc2cc(/N=N/c3n(CCCN)cc[n+]3CCCN)ccc21.Cl.Cl.[Br-]

>  <Experimental value>
580

$$$$

----------
Test: In-use disappearance of the dye in ammonia buffer with hydrogen peroxide (UV/visible absorbance)
Format: physicochemical
Conditions: % loss recorded at 30 minutes in the presence of a 3% peroxide solution at pH 10.58
Observed property: % Disappearance (In-use) (%)

>  <Molecule>
CCN1CCN(CC)c2cc(/N=N/c3n(CCC[N+](C)(C)C)cc[n+]3CCC[N+](C)(C)C)ccc21 [Compound 6]

>  <% Disappearance (In-use) (%)>
10.86

$$$$
>  <Molecule>
CCN1CCN(CC)c2cc(/N=N/c3n(CCCCN)cc[n+]3CCCCN)ccc21

>  <% Disappearance (In-use) (%)>
1.85

$$$$
>  <Molecule>
CCN1CCN(CC)c2cc(/N=N/c3n(CCC[N+](C)(C)C)cc[n+]3CCC[N+](C)(C)C)ccc21 [Compound 2]

>  <% Disappearance (In-use) (%)>
0

$$$$
>  <Molecule>
CCCCCN1CCNc2cc(/N=N/c3n(CCCN)cc[n+]3CCCN)ccc21.Cl.Cl.[Br-]

>  <% Disappearance (In-use) (%)>
2.9

$$$$
>  <Molecule>
CCCCCN1CCN(CCCCC)c2cc(/N=N/c3n(CCCCN)cc[n+]3CCCCN)ccc21.Cl.Cl.[Br-]

>  <% Disappearance (In-use) (%)>
1.85

$$$$
>  <Molecule>
CCN1CCN(CC)c2cc(/N=N/c3n(CCCN)cc[n+]3CCCN)ccc21.Cl.Cl.[Br-]

>  <% Disappearance (In-use) (%)>
2.0

$$$$

I = CN1CCNc2cc(/N=N/c3n(CCCN)cc[n+]3CCCN)ccc21.Cl.Cl.[Br-]
II = Cn1cc[n+](C)c1/N=N/c1cc2c3c(c1)OCCN3CCO2
// pick larger % Disappearance (In-use) from pair: I vs II Mark your answer with the label of the selected entry.
I

----------
Test: Storage stability: disappearance of the dye on storage at pH 10, 25° C. (UV/visible absorbance)
Type: physicochemical
Settings: % loss on 1-month storage at pH 10, 25° C.
Observed property: % Disappearance (Storage) (%)

>  <Compound>
CCN1CCN(CC)c2cc(/N=N/c3n(CCC[N+](C)(C)C)cc[n+]3CCC[N+](C)(C)C)ccc21 [Compound 6]

>  <Observed property>
% Disappearance (Storage)

>  <Unit name>
%

>  <Experimental value>
3.47

$$$$
>  <Compound>
CCCCCN1CCN(CCCCC)c2cc(/N=N/c3n(CCCCN)cc[n+]3CCCCN)ccc21.Cl.Cl.[Br-] [Compound 4]

>  <Observed property>
% Disappearance (Storage)

>  <Unit name>
%

>  <Experimental value>
3.86

$$$$
>  <Compound>
CCN1CCN(CC)c2cc(/N=N/c3n(CCCCN)cc[n+]3CCCCN)ccc21 [Compound 9]

>  <Observed property>
% Disappearance (Storage)

>  <Unit name>
%

>  <Experimental value>
3.37

$$$$

I = CCN1CCN(CC)c2cc(/N=N/c3n(CCC[N+](C)(C)C)cc[n+]3CCC[N+](C)(C)C)ccc21 [Compound 2]
II = CCCCCN1CCNc2cc(/N=N/c3n(CCCN)cc[n+]3CCCN)ccc21.Cl.Cl.[Br-] [Compound 5]
III = Cn1cc[n+](C)c1/N=N/c1cc2c3c(c1)OCCN3CCO2 [Compound 8]
IV = CN1CCNc2cc(/N=N/c3n(CCCN)cc[n+]3CCCN)ccc21.Cl.Cl.[Br-] [Compound 3]
V = CCN1CCN(CC)c2cc(/N=N/c3n(CCCN)cc[n+]3CCCN)ccc21.Cl.Cl.[Br-] [Compound 1]
I would appreciate it if you could sort these 5 compounds by % Disappearance (Storage), starting from the smallest number. Returns: the labels arranged in the requested order.
I, III, V, II, IV

meta.source: patent US9982138B2
